assayName: NCI Yeast Anticancer Drug Screen. Data for the bub3 strain (AID 167)
assayConditions: S. cerevisiae bub3 mutant strain, at 5.0 µM (retest, dose inferred, filed as 0.5)
This is part of a sample that, as a whole, favours compounds with a hit. Of some 79,000 tested, about 15% had one in any assay. Active and inactive are the calls of the source. Cut-off read from the data, not from the text of the source: active = growth inhibition above about 70%; inactive = the rest.
Form entry, call: pick from active, inactive

Answered examples (3):
compound	groupLabel
CCCCCc1cc(O)c(CCCC)c(O)c1	inactive
S=P(OC1CC2CCC1C2)(c1ccccc1)c1ccccc1 (stereo unspecified)	active
CC(=O)NC1C(O[C@H]2CC[C@@]3(C)C(CC[C@]4(C)C3CC=C3C5CC(C)(C)CC[C@]5(C(=O)O)CCC34C)C2(C)C)OC(CO)C(O)C1O (stereo partly specified)	active

Request: Record request — test call for `O=C(c1ccccc1)c1cc(CN(CCCl)CCCl)c(O)cc1O`
Response: inactive

Request: Record request — test call for `CCCC(=O)O.CCCC(=O)O.CCCC(=O)O.CCCC(=O)O.[Rh].[Rh]`
Response: inactive

Request: Record request — test call for COc1ccc([As]=[As]c2ccc(OC)c(I)c2)cc1I (stereo unspecified)
Response: active
